Assay: Pharmacokinetic assay in Balb/c mice (plasma and brain tissue)
Format: in vivo
Conditions: male, mouse, po, Plasma, p.o. 5 mg/kg, read-out: Half life t1/2 (converted)
Reported half-life values for a set of compounds
measurementKind: half-life (h)

# compound, reading
rows = [
    ("CCN(C)C(=O)NC1CC(CCN2CCN(c3cccc4sccc34)CC2)C1 (centres unmarked) [Example 24]", 3.4),
    ("O=C(NC1CC(CCN2CCN(c3cccc(Cl)c3Cl)CC2)C1)C1(O)CC1 (centres unmarked) [Example 6]", 1.9),
    ("O=C(N[C@H]1C[C@@H](CCN2CCN(c3cccc(Cl)c3Cl)CC2)C1)C1(O)CC1 [Example 6B]", 1.6),
    ("O=C(NC1CC(CCN2CCN(c3cccc(Cl)c3Cl)CC2)C1)c1nccs1 (centres unmarked) [Example 7]", 2.1),
    ("O=C(N[C@H]1C[C@H](CCN2CCN(c3cccc(Cl)c3Cl)CC2)C1)c1cccc2ncccc12 [Example 19A]", 1.7),
    ("O=C(NC1CC(CCN2CCCN(c3cccc(Cl)c3Cl)CC2)C1)c1ccco1 (centres unmarked) [Example 25]", 3.25),
    ("O=C(N[C@H]1C[C@H](CCN2CCN(c3cccc(Cl)c3Cl)CC2)C1)C1(O)CC1 [Example 6A]", 1.3),
    ("O=C(N[C@H]1C[C@@H](CCN2CCN(c3cccc(Cl)c3Cl)CC2)C1)c1ncco1 [Example 12B]", 1.8),
]
